# Tested on: Staphylococcus epidermidis
# Assay details: Bactericidal activity against methicillin-resistant Staphylococcus epidermidis isolate 461/11 after 24 hrs
# Format: functional
# Stated conditions: isolate 461/11, 24 h, read-out: MBC99.9
Recorded metric: MBC

item_smiles=CC[C@@H](C(=O)[C@@H](C)[C@@H](O)[C@H](C)[C@@H]1O[C@@H]([C@@H](CC)C(=O)N2CCOCC2)CC[C@@H]1C)[C@H]1O[C@]2(C=C[C@@H](O)[C@]3(CC[C@@](C)([C@H]4CC[C@](O)(CC)[C@H](C)O4)O3)O2)[C@H](C)C[C@@H]1C result="> 256 µg/mL"

Query compound follows.
Give the reported MBC for "CC[C@@H](C(=O)[C@@H](C)[C@@H](O)[C@H](C)[C@@H]1O[C@@H]([C@@H](CC)C(=O)N(CCOC)CCOC)CC[C@@H]1C)[C@H]1O[C@]2(C=C[C@@H](O)[C@]3(CC[C@@](C)([C@H]4CC[C@](O)(CC)[C@H](C)O4)O3)O2)[C@H](C)C[C@@H]1C" (system: Staphylococcus epidermidis). > 256 µg/mL

----------
# Tested on: Staphylococcus epidermidis
# Assay details: Antimicrobial activity against methicillin-resistant Staphylococcus epidermidis isolate 460/11 after 18 hrs by twofold serial broth dilution method
# Assay type: functional
# Stated conditions: isolate 460/11, 18 h
Examples of molecules with documented MIC follow.
Express the result in µg/mL but write the number alone.

item_smiles=CC[C@@H](C(=O)[C@@H](C)[C@@H](O)[C@H](C)[C@@H]1O[C@@H]([C@@H](CC)C(=O)N(Cc2ccccc2)Cc2ccccc2)CC[C@@H]1C)[C@H]1O[C@]2(C=C[C@@H](O)[C@]3(CC[C@@](C)([C@H]4CC[C@](O)(CC)[C@H](C)O4)O3)O2)[C@H](C)C[C@@H]1C numeric_result=32
item_smiles=CCCN(CCC)C(=O)[C@H](CC)[C@H]1CC[C@H](C)[C@H]([C@@H](C)[C@H](O)[C@H](C)C(=O)[C@H](CC)[C@H]2O[C@]3(C=C[C@@H](O)[C@]4(CC[C@@](C)([C@H]5CC[C@](O)(CC)[C@H](C)O5)O4)O3)[C@H](C)C[C@@H]2C)O1 numeric_result=8
item_smiles=CCCCN(CCCC)C(=O)[C@H](CC)[C@H]1CC[C@H](C)[C@H]([C@@H](C)[C@H](O)[C@H](C)C(=O)[C@H](CC)[C@H]2O[C@]3(C=C[C@@H](O)[C@]4(CC[C@@](C)([C@H]5CC[C@](O)(CC)[C@H](C)O5)O4)O3)[C@H](C)C[C@@H]2C)O1 numeric_result=8
item_smiles=CC[C@@H](C(=O)[C@@H](C)[C@@H](O)[C@H](C)[C@@H]1O[C@@H]([C@@H](CC)C(=O)N(CC)CC)CC[C@@H]1C)[C@H]1O[C@]2(C=C[C@@H](O)[C@]3(CC[C@@](C)([C@H]4CC[C@](O)(CC)[C@H](C)O4)O3)O2)[C@H](C)C[C@@H]1C numeric_result=8

Return reported MIC; argument: "CC[C@@H](C(=O)[C@@H](C)[C@@H](O)[C@H](C)[C@@H]1O[C@@H]([C@@H](CC)C(=O)N2CCNCC2)CC[C@@H]1C)[C@H]1O[C@]2(C=C[C@@H](O)[C@]3(CC[C@@](C)([C@H]4CC[C@](O)(CC)[C@H](C)O4)O3)O2)[C@H](C)C[C@@H]1C" 128

Return reported MIC; argument: "O=C(O)c1cn(C2CC2)c2cc(N3CCNCC3)c(F)cc2c1=O" 0.125

----------
# System: Staphylococcus epidermidis
# Assay details: Antimicrobial activity against Staphylococcus epidermidis ATCC 12228 after 18 hrs by twofold serial broth dilution method
# Assay type: functional
# Stated conditions: ATCC 12228, 18 h
Recorded metric: MIC (µg/mL)
Express the result in µg/mL but write the number alone.

Give the reported MIC for "CC[C@@H](C(=O)[C@@H](C)[C@@H](O)[C@H](C)[C@@H]1O[C@@H]([C@@H](CC)C(=O)N2CCNCC2)CC[C@@H]1C)[C@H]1O[C@]2(C=C[C@@H](O)[C@]3(CC[C@@](C)([C@H]4CC[C@](O)(CC)[C@H](C)O4)O3)O2)[C@H](C)C[C@@H]1C" (system: Staphylococcus epidermidis). 128

----------
# Tested on: Staphylococcus aureus
# Assay details: Antimicrobial activity against Staphylococcus aureus ATCC 25923 after 18 hrs by twofold serial broth dilution method
# Format: functional
# Stated conditions: ATCC 25923, 18 h
Recorded metric: MIC (µg/mL)
Express the result in µg/mL but write the number alone.

item_smiles=CCCN(CCC)C(=O)[C@H](CC)[C@H]1CC[C@H](C)[C@H]([C@@H](C)[C@H](O)[C@H](C)C(=O)[C@H](CC)[C@H]2O[C@]3(C=C[C@@H](O)[C@]4(CC[C@@](C)([C@H]5CC[C@](O)(CC)[C@H](C)O5)O4)O3)[C@H](C)C[C@@H]2C)O1 numeric_result=1
item_smiles=CC[C@@H](C(=O)[C@@H](C)[C@@H](O)[C@H](C)[C@@H]1O[C@@H]([C@@H](CC)C(=O)N(CCO)CCO)CC[C@@H]1C)[C@H]1O[C@]2(C=C[C@@H](O)[C@]3(CC[C@@](C)([C@H]4CC[C@](O)(CC)[C@H](C)O4)O3)O2)[C@H](C)C[C@@H]1C numeric_result=4
item_smiles=CCCCCCCCN(CCCCCCCC)C(=O)[C@H](CC)[C@H]1CC[C@H](C)[C@H]([C@@H](C)[C@H](O)[C@H](C)C(=O)[C@H](CC)[C@H]2O[C@]3(C=C[C@@H](O)[C@]4(CC[C@@](C)([C@H]5CC[C@](O)(CC)[C@H](C)O5)O4)O3)[C@H](C)C[C@@H]2C)O1 numeric_result=128
item_smiles=CC[C@@H](C(=O)[C@@H](C)[C@@H](O)[C@H](C)[C@@H]1O[C@@H]([C@@H](CC)C(=O)N2CCNCC2)CC[C@@H]1C)[C@H]1O[C@]2(C=C[C@@H](O)[C@]3(CC[C@@](C)([C@H]4CC[C@](O)(CC)[C@H](C)O4)O3)O2)[C@H](C)C[C@@H]1C numeric_result=128

Query compound follows.
Return reported MIC; argument: "CC[C@@H](C(=O)[C@@H](C)[C@@H](O)[C@H](C)[C@@H]1O[C@@H]([C@@H](CC)C(=O)N(CCOC)CCOC)CC[C@@H]1C)[C@H]1O[C@]2(C=C[C@@H](O)[C@]3(CC[C@@](C)([C@H]4CC[C@](O)(CC)[C@H](C)O4)O3)O2)[C@H](C)C[C@@H]1C" 64

----------
# Test system: Staphylococcus epidermidis
# Assay details: Antimicrobial activity against methicillin-resistant Staphylococcus epidermidis isolate 454/11 after 18 hrs by twofold serial broth dilution method
# Format: functional
# Stated conditions: isolate 454/11, 18 h
Recorded metric: MIC (µg/mL)
Express the result in µg/mL but write the number alone.

Example compounds with recorded MIC:
item_smiles=CC[C@@H](C(=O)[C@@H](C)[C@@H](O)[C@H](C)[C@@H]1O[C@@H]([C@@H](CC)C(=O)N(CC)CC)CC[C@@H]1C)[C@H]1O[C@]2(C=C[C@@H](O)[C@]3(CC[C@@](C)([C@H]4CC[C@](O)(CC)[C@H](C)O4)O3)O2)[C@H](C)C[C@@H]1C numeric_result=4
item_smiles=CC[C@@H](C(=O)[C@@H](C)[C@@H](O)[C@H](C)[C@@H]1O[C@@H]([C@@H](CC)C(=O)N(CCOC)CCOC)CC[C@@H]1C)[C@H]1O[C@]2(C=C[C@@H](O)[C@]3(CC[C@@](C)([C@H]4CC[C@](O)(CC)[C@H](C)O4)O3)O2)[C@H](C)C[C@@H]1C numeric_result=64
item_smiles=CC[C@@H](C(=O)[C@@H](C)[C@@H](O)[C@H](C)[C@@H]1O[C@@H]([C@@H](CC)C(=O)N(Cc2ccccc2)Cc2ccccc2)CC[C@@H]1C)[C@H]1O[C@]2(C=C[C@@H](O)[C@]3(CC[C@@](C)([C@H]4CC[C@](O)(CC)[C@H](C)O4)O3)O2)[C@H](C)C[C@@H]1C numeric_result=8

Give the reported MIC for "CC[C@@H](C(=O)[C@@H](C)[C@@H](O)[C@H](C)[C@@H]1O[C@@H]([C@@H](CC)C(=O)N2CCNCC2)CC[C@@H]1C)[C@H]1O[C@]2(C=C[C@@H](O)[C@]3(CC[C@@](C)([C@H]4CC[C@](O)(CC)[C@H](C)O4)O3)O2)[C@H](C)C[C@@H]1C" (system: Staphylococcus epidermidis). 128

Give the reported MIC for "CC[C@@H](C(=O)[C@@H](C)[C@@H](O)[C@H](C)[C@@H]1O[C@@H]([C@@H](CC)C(=O)N2CCOCC2)CC[C@@H]1C)[C@H]1O[C@]2(C=C[C@@H](O)[C@]3(CC[C@@](C)([C@H]4CC[C@](O)(CC)[C@H](C)O4)O3)O2)[C@H](C)C[C@@H]1C" (system: Staphylococcus epidermidis). 128

Give the reported MIC for "CCCCN(CCCC)C(=O)[C@H](CC)[C@H]1CC[C@H](C)[C@H]([C@@H](C)[C@H](O)[C@H](C)C(=O)[C@H](CC)[C@H]2O[C@]3(C=C[C@@H](O)[C@]4(CC[C@@](C)([C@H]5CC[C@](O)(CC)[C@H](C)O5)O4)O3)[C@H](C)C[C@@H]2C)O1" (system: Staphylococcus epidermidis). 4
